Test system: Escherichia coli
conditions: Concentration 20 uM; ASSAY_TEST Inhibition of Bacterial Growth; detection method Absorption (OD600); MEDIA CAMHB; plate type 384well; NBS; CORNING #3640; time 18 hr
Description: Antibacterial activity against Escherichia coli ATCC 25922 (CO-ADD:GN_001); MIC in CAMBH media using NBS plates, by OD(600)
Results with a measured potency or affinity are listed apart.
Catalogue of Inhibition values
Express your answer in %, writing the number without its unit.

As a guide, the following entries are already answered.
molecule: O=c1cnn([C@@H]2O[C@H](CO)[C@@H](O)[C@H]2O)c(=O)[nH]1 [6-AZAURIDINE]
quantitativeReadout: 4.59
//
molecule: CCOC(=O)[C@H](CCc1ccccc1)N[C@H]1CCc2ccccc2N(CC(=O)O)C1=O.Cl [BENAZEPRIL HYDROCHLORIDE]
quantitativeReadout: 0.93

Data request: Can you share its Inhibition? I mean this molecule: CCCCCCCCCCC[C@@H](C[C@@H]1OC(=O)[C@H]1CCCCCC)OC(=O)[C@H](CC(C)C)NC=O [ORLISTAT]
Data returned: -4.78

Data request: Which Inhibition value belongs to CC(C)(C)NC[C@H](O)COc1nsnc1N1CCOCC1.O=C(O)/C=C\C(=O)O [TIMOLOL MALEATE] ?
Data returned: 1.71

Data request: Name the recorded Inhibition for CC(C)NCC(O)c1cc(O)cc(O)c1 (stereo not drawn) [METAPROTERENOL] .
Data returned: -6.08

Data request: Item COC(=O)C1=C(C)NC(C)=C(C(=O)O[C@@H]2CCCN(Cc3ccccc3)C2)[C@@H]1c1cccc([N+](=O)[O-])c1.Cl has what recorded Inhibition?
Data returned: -0.62

Data request: Any idea what its Inhibition is? The molecule is CC(COc1ccccc1)NC(C)C(O)c1ccc(O)cc1.Cl (stereo not drawn) [ISOXSUPRINE HYDROCHLORIDE]
Data returned: -2.1

Data request: Can you share its Inhibition? I mean this molecule: CCN(CC)CCNC(=O)c1ccc(N)cc1.Cl [PROCAINAMIDE HYDROCHLORIDE]
Data returned: -0.2

Data request: Recorded Inhibition for CC(=O)SCC(Cc1ccccc1)C(=O)NCC(=O)OCc1ccccc1 (stereo not drawn) [RACECADOTRIL] , please?
Data returned: -5.63

Data request: Param item = Cl.O=C(c1ccc(OCCN2CCCCC2)cc1)c1c(-c2ccc(O)cc2)sc2cc(O)ccc12 [RALOXIFENE HYDROCHLORIDE] ; retrieve measured Inhibition.
Data returned: -1.03

Data request: // Inhibition lookup, key: O=c1c(-c2ccccc2)c1-c1ccccc1 [DIPHENCYPRONE]
Data returned: 6.71

Data request: Entry under review: C[C@]12CC[C@@H]3c4ccc(O)cc4CC[C@H]3[C@@H]1CC[C@@H]2O [ESTRADIOL] . Reported Inhibition?
Data returned: -0.2

Data request: Record request: Inhibition value, item CN1CCN(C2=Nc3ccccc3Oc3ccc(Cl)cc32)CC1.O=C(O)CCC(=O)O [LOXAPINE SUCCINATE]
Data returned: 4.68
